System: Mycobacterium tuberculosis
Experiment: Inhibition of Mycobacterium tuberculosis monoacylglycerol lipase Rv0183 preincubated with enzyme measured after 30 mins by pH-stat technique
reportedMetric: XI50

CCCCCCCCCC[C@@H]1CC[P@](=O)(OC)OC(C)=C1C(=O)OC | 1.24 molar excess
CCCCCCCCCC[C@@H]1CC[P@@](=O)(OC)OC(C)=C1C(=O)OC | 7.61 molar excess
CCCCCCCCCC[C@H]1CC[P@](=O)(OC)OC(C)=C1C(=O)OC | 1.16 molar excess
CCCCCCCCCC[C@H]1CC[P@@](=O)(OC)OC(C)=C1C(=O)OC | 11.3 molar excess

====

inhibition overview
Biological target: Cutinase 1 (Fusarium vanettenii) (UniProt P00590)
Sequence (whole entry): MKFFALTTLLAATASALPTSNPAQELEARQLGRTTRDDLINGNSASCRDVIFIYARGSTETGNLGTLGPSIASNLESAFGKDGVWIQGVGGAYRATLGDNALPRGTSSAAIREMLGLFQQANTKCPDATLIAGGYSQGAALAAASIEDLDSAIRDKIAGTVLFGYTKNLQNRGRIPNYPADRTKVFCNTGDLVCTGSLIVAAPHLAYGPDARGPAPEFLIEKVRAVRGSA
Assay: Inhibition of Fusarium solani pisi cutinase at 20 molar excess compound concentration preincubated with enzyme measured after 30 mins by pH-stat technique relative to control
reportedMetric: inhibition (%)

CCCCCCCCCC[C@H]1CC[P@](=O)(OC)OC(C)=C1C(=O)OC | 93.2
CCCCCCCCCC[C@@H]1CC[P@](=O)(OC)OC(C)=C1C(=O)OC | 86.5
CCCCCCCCCC[C@H]1CC[P@@](=O)(OC)OC(C)=C1C(=O)OC | 22.5
CCCCCCCCCC[C@@H]1CC[P@@](=O)(OC)OC(C)=C1C(=O)OC | 91.8

====

Tested on: Mycobacterium tuberculosis
Assay: Inhibition of Mycobacterium tuberculosis monoacylglycerol lipase Rv0183 at 20 molar excess compound concentration preincubated with enzyme measured after 30 mins by pH-stat technique relative to control
reportedMetric: inhibition (%)

CCCCCCCCCC[C@@H]1CC[P@](=O)(OC)OC(C)=C1C(=O)OC | 93.1
CCCCCCCCCC[C@H]1CC[P@](=O)(OC)OC(C)=C1C(=O)OC | 96.6
CCCCCCCCCC[C@@H]1CC[P@@](=O)(OC)OC(C)=C1C(=O)OC | 87.7
CCCCCCCCCC[C@H]1CC[P@@](=O)(OC)OC(C)=C1C(=O)OC | 78.7

====

inhibition overview
Test system: Mycobacterium tuberculosis
Assay: Inhibition of Mycobacterium tuberculosis triacylglycerol lipase LipY at 20 molar excess compound concentration preincubated with enzyme measured after 30 mins by pH-stat technique relative to control
reportedMetric: inhibition (%)

CCCCCCCCCC[C@H]1CC[P@@](=O)(OC)OC(C)=C1C(=O)OC | 39.8
CCCCCCCCCC[C@@H]1CC[P@@](=O)(OC)OC(C)=C1C(=O)OC | 82.8
CCCCCCCCCC[C@@H]1CC[P@](=O)(OC)OC(C)=C1C(=O)OC | 49.6
CCCCCCCCCC[C@H]1CC[P@](=O)(OC)OC(C)=C1C(=O)OC | 42.1

====

System: Mycobacterium tuberculosis
Test: Inhibition of Mycobacterium tuberculosis triacylglycerol lipase LipY preincubated with enzyme measured after 30 mins by pH-stat technique
reportedMetric: XI50 (molar excess)

CCCCCCCCCC[C@@H]1CC[P@@](=O)(OC)OC(C)=C1C(=O)OC | 1.64
CCCCCCCCCC[C@@H]1CC[P@](=O)(OC)OC(C)=C1C(=O)OC | 15.4
CCCCCCCCCC[C@H]1CC[P@](=O)(OC)OC(C)=C1C(=O)OC | 20
CCCCCCCCCC[C@H]1CC[P@@](=O)(OC)OC(C)=C1C(=O)OC | 25.9
